test system: PRMT1 (protein arginine N-methyltransferase 1); assay: PRMT1 binders on small-molecule microarrays, primary screen, biochemical, small-molecule microarray, 635 nm fluorescence (AID 1088); conditions: small-molecule microarray binding, higher = more signal
# composite z-score >= 1 gives satisfied, anything below gives not satisfied

- COMPOUND: "CCOC(=O)C1=CCC(c2ccc([N+](=O)[O-])cc2)N(S(=O)(=O)c2ccc(C)cc2)C1 (stereo not drawn)"
  CATEGORY LABEL: "not satisfied"
- COMPOUND: "O=C1N(CCS(=O)(=O)c2ccccc2)Cc2ccccc2C[C@]12N=C(c1ccc(OCCCO)cc1)O[C@@H]2c1ccccc1"
  CATEGORY LABEL: "satisfied"
- COMPOUND: "COCCOC(=O)N1C(=O)[C@@]2(c3cc(C#CCC(C(=O)OC)C(=O)OC)ccc31)[C@H](c1ccc(O)cc1)N1[C@H](c3ccccc3)[C@H](c3ccccc3)OC(=O)[C@H]1[C@@H]2C(N)=O"
  CATEGORY LABEL: "satisfied"
- COMPOUND: "CC(=CC1CCCCC1)[C@@H](NC(=O)c1ccc(C(F)(F)F)cc1)c1ccc(-c2ccccc2)cc1"
  CATEGORY LABEL: "not satisfied"
- COMPOUND: "[N-]=[N+]=NCc1ccccc1C[C@@]1(C(=O)NCC(O)CO)N=C(c2ccc(OCCCO)cc2)O[C@@H]1c1ccccc1CN=[N+]=[N-] (stereo partly drawn)"
  CATEGORY LABEL: "satisfied"
- COMPOUND: "O=C1OCC=C[C@H]2OC34C=CCN(c5ccc6ccccc6c5)C(=O)[C@H]3N(CCCO)C(=O)[C@@H]4[C@@H]12 (stereo partly drawn)"
  CATEGORY LABEL: "not satisfied"
- COMPOUND: "N#Cc1ccc(NN2C(C(O)C3CCCCC3)C=CC3C(=O)N(c4ccccc4)C(=O)C32)cc1 (stereo not drawn)"
  CATEGORY LABEL: "satisfied"
- COMPOUND: "C[C@]1(C(=O)NCc2ccccc2)c2ccccc2C(=O)N(Cc2ccc(OC(F)(F)F)cc2)[C@H]1c1ccc(CO)cc1"
  CATEGORY LABEL: "not satisfied"
- COMPOUND: "C=CC(=C)C1=CCO[C@@H]1[C@H]1CCCN1S(=O)(=O)c1ccccc1[N+](=O)[O-]"
  CATEGORY LABEL: "not satisfied"
- COMPOUND: "C=CC[C@@H](OC(=O)Nc1ccc(OC)cc1)c1ccc(O)c2ccccc12"
  CATEGORY LABEL: "satisfied"
- COMPOUND: "O=C1O[C@H](c2ccccc2)[C@H](c2ccccc2)N2[C@H]1[C@@H](C(=O)O)[C@]1(C(=O)Nc3ccc(C#CC4=CCCCC4)cc31)[C@H]2c1ccc(OCCO)cc1"
  CATEGORY LABEL: "satisfied"
- COMPOUND: "C=C(CCCC)C(=O)CC[C@H](OC(=O)c1cccnc1)c1cccc(OCCO)c1"
  CATEGORY LABEL: "satisfied"
- COMPOUND: "O=C1C2C=CC(C(O)c3ccc(-c4ccccc4)s3)N(n3cnnc3)C2C(=O)N1Cc1ccccc1 (stereo not drawn)"
  CATEGORY LABEL: "not satisfied"
- COMPOUND: "CCCN1C(=O)[C@]2(COC(c3ccc(OCCCO)cc3)=N2)Cc2ccccc21"
  CATEGORY LABEL: "satisfied"
- COMPOUND: "COC(=O)c1c(CC[C@@H](CO)NC(=O)N[C@@H](Cc2ccccc2)Cn2cc(C3(O)CCCCC3)nn2)oc(C(C)=O)c1C(=O)OC"
  CATEGORY LABEL: "satisfied"
- COMPOUND: "O=C1N(CCS(=O)(=O)c2ccccc2)c2ccccc2C[C@@]12COC(c1ccc(OCCCO)cc1)=N2"
  CATEGORY LABEL: "satisfied"
- COMPOUND: "CCOC(=O)[C@H]1C[C@H]2O[C@@]23C[C@H]1C(=O)N1CCCC1[C@@H]3O[Si](C)(C)C(C)(C)C (stereo partly drawn)"
  CATEGORY LABEL: "not satisfied"
- COMPOUND: "COCCOC(=O)N1C(=O)[C@@]2(c3cc(C#CC4=CCCCC4)ccc31)[C@H](C(=O)NC[C@H](O)c1ccccc1)[C@H]1C(=O)O[C@H](c3ccccc3)[C@H](c3ccccc3)N1[C@@H]2c1ccc(O)cc1"
  CATEGORY LABEL: "satisfied"
- COMPOUND: "COc1ccc([Si](C)(C)[C@@H]2[C@@H](CCn3cc([C@H](O)c4ccccc4)nn3)O[C@]3(C(=O)N(Cc4cccc(N5CCOC5=O)c4)c4ccccc43)[C@H]2C)cc1"
  CATEGORY LABEL: "not satisfied"
- COMPOUND: "O=C1O[C@H](c2ccccc2)[C@H](c2ccccc2)N2[C@H]1[C@@H](C(=O)Nc1nc3ccccc3s1)[C@]1(C(=O)Nc3ccccc31)[C@H]2c1ccc(O)cc1"
  CATEGORY LABEL: "satisfied"
- COMPOUND: "COC(=O)c1ccc(C23CC2(C(NP(=O)(c2ccccc2)c2ccccc2)c2ccccc2)C3)cc1 (stereo not drawn)"
  CATEGORY LABEL: "not satisfied"
- COMPOUND: "C=CCNC(=O)[C@H]1[C@@H]2C(=O)O[C@@H](c3ccccc3)[C@@H](c3ccccc3)N2[C@@H](c2ccc(O)cc2)[C@]12C(=O)N(C(=O)OCCOC)c1ccc(C#CCCO)cc12"
  CATEGORY LABEL: "satisfied"
- COMPOUND: "CC(=O)Nc1cc(Br)ccc1C(=O)O"
  CATEGORY LABEL: "not satisfied"
- COMPOUND: "O=C1OCCC/C=C\\[C@H]2OC34C=CCN(Cn5nnc6ccccc65)C(=O)[C@H]3N(CCCCCO)C(=O)[C@@H]4C12 (stereo partly drawn)"
  CATEGORY LABEL: "not satisfied"
- COMPOUND: "COCCOC(=O)N1C(=O)[C@@]2(c3cc(C#CCC(C(=O)OC)C(=O)OC)ccc31)[C@H](C(=O)N1CCCCCCC1)[C@H]1C(=O)O[C@H](c3ccccc3)[C@H](c3ccccc3)N1[C@@H]2c1ccc(OCCO)cc1"
  CATEGORY LABEL: "satisfied"
- COMPOUND: "COc1ccc(C#Cc2ccc3c(c2)[C@]2(C(=O)N3)[C@H](c3ccc(O)cc3)N3[C@H](c4ccccc4)[C@H](c4ccccc4)OC(=O)[C@H]3[C@@H]2C(=O)N2CCCCCCC2)cc1"
  CATEGORY LABEL: "satisfied"
- COMPOUND: "CCN(CC)c1ccc(N2CC=CC34O[C@@H]5C=CCCOC(=O)C5[C@H]3C(=O)N(CCCCCO)[C@@H]4C2=O)cc1 (stereo partly drawn)"
  CATEGORY LABEL: "not satisfied"
